- test-system: T1, biotinylated recombinant mouse IL-12Rβ2 (mouse, UniProt P97378 24-637, random biotinylated)
- T1 construct: Recombinant protein produced in-house, biotinylated; also called mIL-12RB2; mouse IL-12RB2
- T1 sequence: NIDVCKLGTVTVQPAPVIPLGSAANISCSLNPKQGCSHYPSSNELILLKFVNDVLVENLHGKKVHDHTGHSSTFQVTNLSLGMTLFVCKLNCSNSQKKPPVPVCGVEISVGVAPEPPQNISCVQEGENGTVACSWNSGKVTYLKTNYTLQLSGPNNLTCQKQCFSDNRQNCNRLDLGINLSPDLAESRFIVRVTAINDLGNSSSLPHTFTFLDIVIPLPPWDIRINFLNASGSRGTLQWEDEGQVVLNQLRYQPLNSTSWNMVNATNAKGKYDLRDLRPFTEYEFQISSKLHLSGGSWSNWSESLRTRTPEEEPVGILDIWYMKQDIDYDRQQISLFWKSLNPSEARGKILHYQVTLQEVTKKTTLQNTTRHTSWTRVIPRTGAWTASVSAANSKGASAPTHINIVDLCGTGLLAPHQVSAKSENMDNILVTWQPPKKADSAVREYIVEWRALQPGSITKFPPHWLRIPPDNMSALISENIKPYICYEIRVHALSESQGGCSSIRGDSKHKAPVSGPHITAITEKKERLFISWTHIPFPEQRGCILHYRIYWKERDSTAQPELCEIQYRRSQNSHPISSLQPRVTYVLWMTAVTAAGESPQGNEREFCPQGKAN
- assay-details: ELISA, periplasmic extract on biotinylated mIL-12Rβ2, signal over control wells
Respond with y for ELISA binding mIL-12RB2/control values of 9 ratio and above, n for values below.

binder="anti-IL-12Rβ2 VHH clone 20499 (VHH, not shown: small tags and cut ends, tested as periplasmic extract; also called 2CAM75) VHH: QVQLQESGGGLVQAGGSLRLSCAASGRTFSSYGMGWFRQAPGKEREFVAAISRDASITDYADSVKGRFTISRDNAKNTAYLEMNSLNPEDTAVYFCAAAYTYSGSHYVTARSSDYHSWGQGTQVTVSS" category_label=y

Textbook exercise: given the entry anti-IL-12Rβ2 VHH clone 20533 (VHH, not shown: small tags and cut ends, tested as periplasmic extract; also called 2CAMS26) VHH: QVQLQESGGGLVQAGGSLTLSCTASGRTFSSYTTGWFRQAPGKEREFVAGISSGGSWIGDITSYADSVKGRFTISRDNAKNMIYLQMNSLKPDDTGVYYCAAASYGTRYYVGSTANEYTTWGQGTQVTVSS , state whether its ELISA binding mIL-12RB2/control is greater than or equal to 9 ratio. n

Textbook exercise: given the entry anti-IL-12Rβ2 VHH clone 20491 (VHH, not shown: small tags and cut ends, tested as periplasmic extract; also called 2CAM57) VHH: QVQLQESGGGLVQAGGSLRLSCAASGRTFSSYGMGWFRQAPGKERDFVAAISRDARYTDYADSVKGRFTISKDNAKNTAYLQMNSLNPEDTAVYFCAAAYTYSGSHYVTARSGDYNYWGQGTQVTVSS , state whether its ELISA binding mIL-12RB2/control is greater than or equal to 9 ratio. y

Textbook exercise: given the entry anti-IL-12Rβ2 VHH clone 20452 (VHH, not shown: small tags and cut ends, tested as periplasmic extract; also called 2CRM84) VHH: QVQLQESGGGLVQAGGSLRLSCAASGFAFSSVAMSWVRQAPGKGLEWVSSISSGGHDTNYANSVKGRFTISRDNAKNTLYLQMNSLKPEDTAVYYCAKSSRNYSPPGQGTQVTVSS , state whether its ELISA binding mIL-12RB2/control is greater than or equal to 9 ratio. n

Textbook exercise: given the entry anti-IL-12Rβ2 VHH clone 20524 (VHH, not shown: small tags and cut ends, tested as periplasmic extract; also called 3CRMS14) VHH: QVQLQESGGGLVQAGGSLRLSCTASGSIFAIDDMYWYRQAPGKQREFVAYITATNSANYLDPVNGRFTISRDNAKNSVYLQMNSLKPEDTAVYYCNAKQIVGFQIDEYWGQGTQVTVSS , state whether its ELISA binding mIL-12RB2/control is greater than or equal to 9 ratio. y

Textbook exercise: given the entry anti-IL-12Rβ2 VHH clone 20511 (VHH, not shown: small tags and cut ends, tested as periplasmic extract; also called 3CAM36) VHH: QVQLQESGGGLVQAGESLTLSCTASGRTFSSYGMGWFRQAPGKERDFVAAISRDARYTDYADSVKGRFTISKDNAKNTAYLQMNSLNPEDTAVYFCAAAYTYSGSHYVTARSGDYNYWGQGTQVTVSS , state whether its ELISA binding mIL-12RB2/control is greater than or equal to 9 ratio. y

Textbook exercise: given the entry anti-IL-12Rβ2 VHH clone 20516 (VHH, not shown: small tags and cut ends, tested as periplasmic extract; also called 3CAM85) VHH: QVQLQESGGGLVQAGGSLRLSCAASGRTFSSYGMSWFRQAPGKERDFVAAISRDARITDYADSVKGRFTISRDNVKNTVYLQMNSLNPEDTAVYFCAAAYTYSGSHYVTARSSDYHSWGQGTQVTVSS , state whether its ELISA binding mIL-12RB2/control is greater than or equal to 9 ratio. y
